- TEST NAME: Pharmacokinetic experiments in rats (IV, oral suspension, oral solution)
- Format: in vivo
- TEST CONTEXT: male, rat, plasma, iv, 5 mg/kg, IV 5 mg/kg, Mean of 3, read-out: Cmax
MEASURED PROPERTY: Cmax (ng/mL)
Provide only the numeric value, understood in ng/mL.

The compound O=C(NNc1nc2cc(F)ccc2n2cccc12)c1cnccn1.O=C(O)C(=O)O showed Cmax equal to 1840

###

- TEST NAME: Pharmacokinetic experiments in rats (IV, oral suspension, oral solution)
- Assay type: in vivo
- TEST CONTEXT: male, rat, plasma, oral, 20 mg/kg, Group 3, PO-Suspension 20 mg/kg, 0.5 hr, individual animals
- Protocol: The oral suspension formulation was prepared by suspending the test article in 5% PEG-200/95% of a 0.5% solution of methylcellulose. The concentration of the test article was such that a dosing volume of 10 mL/kg delivered the intended dose level. […] The whole blood samples were centrifuged (˜1500×g) for a minimum of 10 minutes in a refrigerated centrifuge (set at ˜5° C.). […] The plasma samples were analyzed by LC-MS/MS to determine the plasma concentrations of NVX-144 and NVX-412. […]
MEASURED PROPERTY: concentration at 0.5 h (ng/mL)
Provide only the numeric value, understood in ng/mL.

The molecule O=C(NNc1nc2cc(F)ccc2n2cccc12)c1cnccn1.O=C(O)C(=O)O showed concentration at 0.5 h equal to 499

###

- TEST NAME: Pharmacokinetic experiments in rats (IV, oral suspension, oral solution)
- Type: in vivo
- TEST CONTEXT: male, rat, plasma, iv, 5 mg/kg, IV 5 mg/kg, Mean of 3, read-out: T ½ (converted)
- Experimental: The oral suspension formulation was prepared by suspending the test article in 5% PEG-200/95% of a 0.5% solution of methylcellulose. The concentration of the test article was such that a dosing volume of 10 mL/kg delivered the intended dose level. […] The whole blood samples were centrifuged (˜1500×g) for a minimum of 10 minutes in a refrigerated centrifuge (set at ˜5° C.). […] The plasma samples were analyzed by LC-MS/MS to determine the plasma concentrations of NVX-144 and NVX-412. […]
MEASURED PROPERTY: half-life (h)
Provide only the numeric value, understood in h.

The molecule O=C(NNc1nc2cc(F)ccc2n2cccc12)c1cnccn1.O=C(O)C(=O)O [NVX-412] showed half-life equal to 1

###

- TEST NAME: Pharmacokinetic experiments in rats (IV, oral suspension, oral solution)
- Type: in vivo
- TEST CONTEXT: male, rat, plasma, po, 20 mg/kg, Group 5, PO-Solution 20 mg/kg, Mean N=3, read-out: Cmax
MEASURED PROPERTY: Cmax (µg/mL)
Provide only the numeric value, understood in µg/mL.

The compound O=C(NNc1nc2cc(F)ccc2n2cccc12)c1cnccn1.O=C(O)C(=O)O showed Cmax equal to 0.643

###

- TEST NAME: Pharmacokinetic experiments in rats (IV, oral suspension, oral solution)
- Type: in vivo
- TEST CONTEXT: male, rat, plasma, iv, 5 mg/kg, IV 5 mg/kg, individual animals
MEASURED PROPERTY: clearance (mL/min/kg)
Provide only the numeric value, understood in mL/min/kg.

The compound O=C(NNc1nc2cc(F)ccc2n2cccc12)c1cnccn1.O=C(O)C(=O)O showed clearance equal to 63.3
